Below are pKi values for Adenosine receptor A2a (Homo sapiens, UniProt P29274) collected from several publications.
pKi: −log10 of the molar value.
TEST_READOUT: pKi

>>> observed_result("Nc1nc(C(=O)NCc2cccc3cccnc23)c2cccc(-c3cncnc3)c2n1")
6.80
>>> observed_result("N#Cc1c(N)nc(SCc2cccc(CO)c2)c(C#N)c1-c1ccco1")
7.51
>>> observed_result("CCCn1c(=O)c2[nH]c(-c3ccc(OCC(=O)Nc4ccc(OC)nc4)cc3)cc2n(C)c1=O")
6.88
>>> observed_result("CC(=O)Nc1nc(-c2ccccc2)c(-c2noc(C)n2)s1")
6.72
>>> observed_result("COc1cccc(CNc2nc(N)c3nc(-c4cccs4)sc3n2)c1")
7.66
>>> observed_result("CC(=O)N1CCN(CC(=O)Nc2cc(-n3nc(C)cc3C)nc(-c3ccc(C)o3)n2)CC1")
8.44
>>> observed_result("Cn1cc2c(NC(=O)c3ccccc3)nc(-c3ccccc3)nc2n1")
6.14
>>> observed_result("CCCn1c(=O)c2[nH]c(-c3ccc(OCC(=O)NCc4ccncc4)cc3)cc2n(CCC)c1=O")
6.52
>>> observed_result("COc1ccc(CCNc2cc3nc(-c4ccco4)nn3c(N)n2)cc1")
8.24
>>> observed_result("COc1ccc(CC(=O)Nc2cc(-n3nc(C)cc3C)nc(-c3ccc(C)o3)n2)cc1OC")
8.70
>>> observed_result("COc1ccccc1-n1cc2nc(CCCc3ccccc3)nc(N)c2n1")
6.19
>>> observed_result("CCCn1c(=O)c2nc(-c3cnn(Cc4nc(-c5ccccc5)no4)c3)[nH]c2n(CCC)c1=O")
5.96
